Numbers sourced from patent US9988400B2.

Target: HEK cells stably transfected with tetracycline inducible hNR1 and hNR2A (Homo sapiens, UniProt Q05586+Q12879)
Construct: expressed in transfected cells; host or cells: HEK cells, stably transfected, tetracycline/doxycycline inducible
Sequence (Q12879 23-1464, other chains not shown): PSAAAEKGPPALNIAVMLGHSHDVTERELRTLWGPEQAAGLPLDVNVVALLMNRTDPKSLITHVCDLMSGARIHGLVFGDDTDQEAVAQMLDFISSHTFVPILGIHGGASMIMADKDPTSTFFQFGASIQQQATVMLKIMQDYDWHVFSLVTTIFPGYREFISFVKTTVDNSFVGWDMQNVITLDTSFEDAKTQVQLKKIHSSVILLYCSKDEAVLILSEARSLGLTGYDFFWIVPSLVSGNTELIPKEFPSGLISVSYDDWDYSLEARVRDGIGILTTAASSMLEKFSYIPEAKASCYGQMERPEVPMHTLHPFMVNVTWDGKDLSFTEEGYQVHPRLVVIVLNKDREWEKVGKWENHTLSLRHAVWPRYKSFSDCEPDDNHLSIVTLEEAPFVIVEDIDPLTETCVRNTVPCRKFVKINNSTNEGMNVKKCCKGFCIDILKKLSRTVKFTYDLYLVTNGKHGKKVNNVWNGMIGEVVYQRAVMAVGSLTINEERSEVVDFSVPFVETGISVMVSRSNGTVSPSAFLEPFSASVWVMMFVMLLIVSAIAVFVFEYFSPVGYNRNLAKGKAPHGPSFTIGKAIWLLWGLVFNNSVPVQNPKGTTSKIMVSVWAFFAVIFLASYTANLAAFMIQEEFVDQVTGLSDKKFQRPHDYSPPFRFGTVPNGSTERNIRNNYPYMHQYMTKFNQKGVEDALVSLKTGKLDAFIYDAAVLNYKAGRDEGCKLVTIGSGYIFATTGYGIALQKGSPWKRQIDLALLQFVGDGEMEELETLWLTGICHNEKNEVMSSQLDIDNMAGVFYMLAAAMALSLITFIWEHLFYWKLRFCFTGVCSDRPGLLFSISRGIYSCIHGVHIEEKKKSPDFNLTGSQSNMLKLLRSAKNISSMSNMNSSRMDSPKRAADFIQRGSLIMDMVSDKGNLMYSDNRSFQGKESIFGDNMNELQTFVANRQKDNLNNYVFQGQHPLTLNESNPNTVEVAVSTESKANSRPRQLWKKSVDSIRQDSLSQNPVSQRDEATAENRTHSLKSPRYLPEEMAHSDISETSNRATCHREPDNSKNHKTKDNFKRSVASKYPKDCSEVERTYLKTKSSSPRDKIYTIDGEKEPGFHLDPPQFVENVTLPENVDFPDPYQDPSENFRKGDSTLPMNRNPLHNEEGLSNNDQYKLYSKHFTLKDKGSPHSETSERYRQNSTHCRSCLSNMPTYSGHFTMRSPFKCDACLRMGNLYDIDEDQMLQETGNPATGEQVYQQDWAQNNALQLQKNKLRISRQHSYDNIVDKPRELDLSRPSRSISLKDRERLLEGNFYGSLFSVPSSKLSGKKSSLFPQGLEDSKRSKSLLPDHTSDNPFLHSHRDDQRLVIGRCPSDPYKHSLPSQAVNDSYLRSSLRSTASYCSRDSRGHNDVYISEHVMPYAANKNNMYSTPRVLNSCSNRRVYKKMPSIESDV
Assay: Assay 1: Cell-Based Assay, cytosolic calcium response to positive allosteric modulators (with 30 μM glycine and 300 nM L-glutamate, EC30)
Details: Table 3; cytosolic calcium response, with 30 μM glycine and 300 nM L-glutamate (EC30); — = no plateau was reached
The label yes is reserved for EC50 strictly under 5 µM; no covers values equal to or above it.

As a guide, the following entries are already answered.
compound=O=c1cc(Cn2nc(C(F)(F)F)cc2Cl)nc2sc(C(F)(F)F)c(-c3cncc(F)c3)n12 qualitative_label=no
compound=Cc1sc2nc(Cn3nc(Cl)cc3C(F)(F)F)cc(=O)n2c1C1CCC1 qualitative_label=no
compound=Cc1sc2nc(Cn3nc(C4CC4)cc3C(F)(F)F)cc(=O)n2c1C(=O)NCC(F)(F)F qualitative_label=no
compound=Cc1sc2nc(Cn3nc(C(F)(F)F)cc3Cl)cc(=O)n2c1/C=C\C#N qualitative_label=yes

Next:
Lab log: compare recorded EC50 with 5 µM; is it strictly lower for `CCN(Cc1cc(=O)n2c(/C=C\C#N)c(C)sc2n1)c1ccc(F)cc1` ?
yes

###

Molecular target: HEK cells stably transfected with tetracycline inducible hNR1 and hNR2A (Homo sapiens, UniProt Q05586+Q12879)
Construct: expressed in transfected cells; host or cells: HEK cells, stably transfected, tetracycline/doxycycline inducible
Assay: Assay 1: Cell-Based Assay, cytosolic calcium response to positive allosteric modulators (with 30 μM glycine and 300 nM L-glutamate, EC30)
Settings: Table 3; cytosolic calcium response, with 30 μM glycine and 300 nM L-glutamate (EC30); — = no plateau was reached
REPORTED ENDPOINT: pEC50
The quantity pEC50 is defined as the negative base-10 logarithm of the molar concentration.

Sample records with pEC50:
compound="Cc1sc2nc(Cc3cccc(C#N)c3F)cc(=O)n2c1-c1ncco1 [compound 3]" reported_endpoint=pEC50 experimental_result=4.96
compound="CCNC(=O)c1c(C(F)(F)F)sc2nc(Cn3nc(Cl)cc3C(F)(F)F)cc(=O)n12 [compound 44]" reported_endpoint=pEC50 experimental_result=6.16

Now for a further compound.
Supply reported pEC50 belonging to this compound: Cc1sc2nc(Oc3cccc(C#N)c3F)cc(=O)n2c1C1CC1C (centres unmarked) [compound 107]
6.00

###

Listed next: entries and their corresponding EC50.
Target: HEK cells stably transfected with tetracycline inducible hNR1 and hNR2A (Homo sapiens, UniProt Q05586+Q12879)
Construct: expressed in transfected cells; host or cells: HEK cells, stably transfected, tetracycline/doxycycline inducible
Experiment: Assay 1: Cell-Based Assay, cytosolic calcium response to positive allosteric modulators (with 30 μM glycine and 300 nM L-glutamate, EC30)
Conditions: Table 2; cytosolic calcium response, with 30 μM glycine and 300 nM L-glutamate (EC30); — = no plateau was reached
Answer format: value, then unit.

Write down EC50 measured for item Cc1sc2nc(COc3ccc(F)cc3)cc(=O)n2c1[C@@H]1C[C@@H]1CO (relative stereo)
26.5 µM

Output measured EC50 for this item: `CCN(Cc1cc(=O)n2c(-c3ccnc(N)c3)c(C)sc2n1)c1ccc(F)cc1`
6.4 µM

Kindly indicate its recorded EC50. Item: `CCNC(=O)c1csc2nc(COc3ccc(F)cc3)cc(=O)n12`
27 µM

Let me know recorded EC50 for `CCN(Cc1cc(=O)n2c(Br)c(C3CC3)sc2n1)c1ccc(F)cc1` , thanks.
51.5 µM

Identify measured EC50 corresponding to CCN(Cc1cc(=O)n2c([C@@H]3C[C@H]3CO)c(C)sc2n1)c1ccc(F)cc1 (relative stereo)
0.108 µM

Retrieve EC50 measured for Cc1sc2nc(CN3c4ccc(F)cc4CC3C)cc(=O)n2c1C#N (centres unmarked) and print it.
2.1 µM

For `CCN(Cc1cc(=O)n2c(-c3cccnc3N)c(C)sc2n1)c1ccc(F)cc1` , write its EC50.
2.9 µM

Please look at this compound and report its EC50: `CCN(Cc1cc(=O)n2cc(C)sc2n1)c1ccc(F)cc1`
3.2 µM

// Input: `CCN(Cc1cc(=O)n2c(CCCOC)c(C)sc2n1)c1ccc(F)cc1` . Output its EC50 only.
0.913 µM

Please give measured EC50 of the following entry: CCN(Cc1cc(=O)n2c(C3CC3CO)c(C)sc2n1)c1ccc(F)cc1 (single isomer, unassigned) [Example 5.18]
0.091 µM

Tell me EC50 reported for Cc1sc2nc(COc3ccc(F)c(F)c3)cc(=O)n2c1[C@@H]1C[C@H]1CO (relative stereo)
5.8 µM

Tell us which EC50 value is on record for Cc1cc(C)n(Cc2nc3sc(C)c([C@@H]4C[C@H]4CO)n3c(=O)c2F)n1 (relative stereo)
10.5 µM

Consider the compound Cc1sc2nc(Cn3ncc4cc(F)ccc43)cc(=O)n2c1[C@@H]1C[C@H]1CO (relative stereo) . State its measured EC50.
3.8 µM

Tell us which EC50 value is on record for `CCN(Cc1cc(=O)n2c3c(sc2n1)CCC3(C)C)c1ccc(F)cc1`
8.7 µM

###

EC50 values for the molecules below.
Target: HEK cells stably transfected with tetracycline inducible hNR1 and hNR2A (Homo sapiens, UniProt Q05586+Q12879)
Construct: expressed in transfected cells; host or cells: HEK cells, stably transfected, tetracycline/doxycycline inducible
Experiment: Assay 1: Cell-Based Assay, cytosolic calcium response to positive allosteric modulators (with 30 μM glycine and 300 nM L-glutamate, EC30)
Conditions: Table 3; cytosolic calcium response, with 30 μM glycine and 300 nM L-glutamate (EC30); — = no plateau was reached
Value expressed in nM; do not type the unit.

Please review the entries below; each comes with its answer.
molecule=CCNC(=O)c1c(C)sc2nc(Cn3nc(Cl)cc3C(F)(F)F)cc(=O)n12 reported_endpoint=EC50 experimental_result=1760
molecule=CCNC(=O)c1c(C)sc2nc(Cn3nc(C)cc3C(F)(F)F)cc(=O)n12 reported_endpoint=EC50 experimental_result=10600
molecule="Cc1sc2nc(Cn3nc(C(F)(F)F)cc3Cl)cc(=O)n2c1C(O)C(F)(F)F (centres unmarked)" reported_endpoint=EC50 experimental_result=5850
molecule=CC(=O)c1c(C(F)(F)F)sc2nc(Cn3nc(C(F)(F)F)cc3Cl)cc(=O)n12 reported_endpoint=EC50 experimental_result=2690
molecule="Cc1sc2nc(Cn3nc(C(F)(F)F)cc3Cl)cc(=O)n2c1C1CC1C (single isomer, unassigned) [compound 155]" reported_endpoint=EC50 experimental_result=61.6

Given the molecule Cc1sc2nc(Cn3nc(Cl)cc3Cl)cc(=O)n2c1C1CC1C#N (centres unmarked) , write its reported EC50.
420

Identify the reported EC50 for the following entry. `CNC(=O)Cc1c(C(F)(F)F)sc2nc(Cn3nc(C(F)(F)F)cc3C3CC3)cc(=O)n12`
2960

Report EC50, nothing else, for this molecule: Cc1sc2nc(Cc3cccc(C#N)c3F)cc(=O)n2c1C1CC1(F)F (centres unmarked)
6100

Give the reported value of EC50 for this record: N#CC1CC1c1c(C(F)(F)F)sc2nc(Cn3nc(C(F)(F)F)cc3Cl)c(F)c(=O)n12 (single isomer, unassigned) [compound 276]
36.4

###

Parameter Max %: see the listing below.
Target: HEK cells stably transfected with tetracycline inducible hNR1 and hNR2A (Homo sapiens, UniProt Q05586+Q12879)
Construct: expressed in transfected cells; host or cells: HEK cells, stably transfected, tetracycline/doxycycline inducible
Assay: Assay 1: Cell-Based Assay, cytosolic calcium response to positive allosteric modulators (with 30 μM glycine and 300 nM L-glutamate, EC30)
Details: Table 2; responses scaled relative to 100 μM L-glutamate maximal response (100%) and 0 μM L-glutamate (0%)
I only need the number, in %, no unit after it.

compound="Cc1sc2nc(COc3ccccc3F)cc(=O)n2c1[C@@H]1C[C@H]1CO (relative stereo)" experimental_result=127
compound="Cc1cc(C2CC2)n(Cc2cc(=O)n3c([C@@H]4C[C@H]4CO)c(C)sc3n2)n1 (single isomer, unassigned) [Example 15.14]" experimental_result=159
compound="Cc1sc2nc(COc3cccc(F)c3)cc(=O)n2c1[C@@H]1C[C@H]1CO (relative stereo)" experimental_result=138
compound="Cc1sc2nc(COc3ccc(F)cc3)cc(=O)n2c1C(C)CCO (centres unmarked)" experimental_result=121
compound="Cc1sc2nc(Cc3cccc(C#N)c3)c(F)c(=O)n2c1C1CC1CO (centres unmarked)" experimental_result=145

Output measured Max % for this item: Cc1sc2nc(COc3ccc(F)c(F)c3)cc(=O)n2c1[C@@H]1C[C@H]1CO (relative stereo)
134

Please report the measured Max % for COCC1CC1c1c(C)sc2nc(COc3ccc(F)cc3)cc(=O)n12 (centres unmarked)
103

Please list Max % recorded for the compound `CCN(Cc1cc(=O)n2c(COC)c(C)sc2n1)c1cccc(C#N)c1`
160
